Source listed as patent US8129371B2.

# TEST_SYSTEM: Human mTOR (FLAG-TOR) (Homo sapiens, UniProt P42345)
# Construct: FLAG
# TEST_SUMMARY: Human mTOR kinase assay with purified enzyme, DELFIA format
# Type: biochemical
# STATED_CONDITIONS: purified human mTOR enzyme, DELFIA format
ENDPOINT_LABEL: pIC50
Friendly reminder that pIC50 comes from taking -log10 of the concentration in mol/L.

Reference set (2 entries):
CNC(=O)Nc1ccc(-c2nc(N3CC4CCC(C3)O4)c3cnn([C@H]4CC[C@H](OC)CC4)c3n2)cc1 (relative stereo) :: 9.43
COC1CCC(n2ncc3c(N4CC5CCC(C4)O5)nc(-c4ccc(NC(=O)OCCO)cc4)nc32)CC1 (stereo not shown) :: 9.07

Sure, the documented pIC50 for CC(=O)Nc1ccc(-c2nc(N3CC4CCC(C3)O4)c3sccc3n2)cc1 is 7.59

Sure, the documented pIC50 for CO[C@H]1CC[C@@H](n2ncc3c(N4CC5CCC(C4)O5)nc(-c4ccc(NC(=O)NC5CC5)cc4)nc32)CC1 (relative stereo) is 9.28

###

# TEST_SYSTEM: Human mTOR (FLAG-TOR) (Homo sapiens)
# Construct: FLAG
# TEST_SUMMARY: Human mTOR kinase assay with purified enzyme, DELFIA format
# Format: biochemical
pIC50: −log10 of the molar value.
Outcome: condition met for pIC50 of at least 9; condition not met for anything lower.

COC(=O)N1CCC(n2ncc3c(N4CC5CCC(C4)O5)nc(-c4ccc(NC(=O)NCCF)cc4)nc32)CC1 [Example 10] :: condition met
O=C(Nc1ccc(-c2nc(N3C4CCC3COC4)c3cnn(CC(F)(F)F)c3n2)cc1)NC1CC1 [Example 271] :: condition met
O=C(Nc1ccc(CO)cc1)Nc1ccc(-c2nc(N3CC4CCC(C3)O4)c3cnn(CCO)c3n2)cc1 [Example 201] :: condition met
COC(=O)Nc1ccc(-c2nc(N3CC4CCC(C3)O4)c3cnn(CCN(C)C)c3n2)cc1 [Example 154] :: condition not met
CCn1ncc2c(N3CC4CCC(C3)O4)nc(-c3ccc(NC(=O)Nc4ccccc4)cc3)nc21 [Example 46] :: condition met

Proceed to the following item.
Q) Can CCNC(=O)Nc1ccc(-c2nc(N3CC4CCC(C3)O4)c3cnn(C4CCN(C(=O)OC(C)(C)C)CC4)c3n2)cc1 [Example 20] be said to have pIC50 at or above 9?
A) condition met

###

pIC50 for assorted molecules
# TEST_SYSTEM: PI3K (Homo sapiens, UniProt P48736)
# Construct: PI3 Kinase γ IC50; other: PI3 Kinase γ; other: PI3 Kinase γ isoform, fluorescence polarization
# Sequence (P48736 whole entry, canonical isoform): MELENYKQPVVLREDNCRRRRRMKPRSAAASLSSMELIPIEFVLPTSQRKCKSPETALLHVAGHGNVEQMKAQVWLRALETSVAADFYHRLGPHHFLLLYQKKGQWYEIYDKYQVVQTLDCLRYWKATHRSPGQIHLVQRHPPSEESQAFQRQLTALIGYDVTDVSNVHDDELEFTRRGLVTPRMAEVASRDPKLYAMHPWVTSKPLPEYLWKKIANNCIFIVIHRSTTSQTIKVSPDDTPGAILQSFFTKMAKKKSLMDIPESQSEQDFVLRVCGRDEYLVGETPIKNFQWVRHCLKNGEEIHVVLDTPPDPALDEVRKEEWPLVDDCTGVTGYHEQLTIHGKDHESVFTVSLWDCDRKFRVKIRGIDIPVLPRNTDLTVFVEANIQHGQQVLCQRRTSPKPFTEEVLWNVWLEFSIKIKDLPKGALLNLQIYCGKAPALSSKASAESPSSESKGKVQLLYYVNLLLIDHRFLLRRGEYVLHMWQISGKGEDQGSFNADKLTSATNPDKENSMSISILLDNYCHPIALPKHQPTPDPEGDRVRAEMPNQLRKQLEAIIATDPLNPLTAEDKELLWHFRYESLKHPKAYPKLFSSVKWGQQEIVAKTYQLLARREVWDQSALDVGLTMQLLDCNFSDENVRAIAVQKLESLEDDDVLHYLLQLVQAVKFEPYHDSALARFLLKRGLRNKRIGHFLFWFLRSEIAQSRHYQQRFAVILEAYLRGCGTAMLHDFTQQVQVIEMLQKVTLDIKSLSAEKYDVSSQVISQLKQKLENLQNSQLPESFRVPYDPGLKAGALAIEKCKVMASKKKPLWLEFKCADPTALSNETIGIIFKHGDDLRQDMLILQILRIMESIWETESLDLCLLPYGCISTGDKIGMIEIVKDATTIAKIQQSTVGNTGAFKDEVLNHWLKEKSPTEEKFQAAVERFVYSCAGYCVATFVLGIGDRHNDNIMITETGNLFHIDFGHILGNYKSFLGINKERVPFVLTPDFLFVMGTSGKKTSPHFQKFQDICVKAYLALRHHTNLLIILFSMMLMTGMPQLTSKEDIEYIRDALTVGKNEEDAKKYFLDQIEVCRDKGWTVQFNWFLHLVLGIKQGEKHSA
# TEST_SUMMARY: Fluorescence polarization assay for PI3K
# Assay type: biochemical
# STATED_CONDITIONS: PI3 Kinase γ; read-out: PI3 Kinase γ IC50
Friendly reminder that pIC50 comes from taking -log10 of the concentration in mol/L.

CCOC(=O)N1CCC(n2ncc3c(N4CC5CCC(C4)O5)nc(-c4ccc(NC(=O)NCCF)cc4)nc32)CC1 :: 5.02
O=C(NCCF)Nc1ccc(-c2nc(N3CC4CCC(C3)O4)c3cnn(CC(F)(F)F)c3n2)cc1 :: 5.18
CN(C)c1cccc(NC(=O)Nc2ccc(-c3nc(N4CC5CCC(C4)O5)c4cnn(CC(F)(F)F)c4n3)cc2)c1 :: 5.37
COC(=O)N1CCC(n2ncc3c(N4CC5CCC(C4)O5)nc(-c4ccc(NC(=O)Nc5ccc(CCO)cc5)cc4)nc32)CC1 :: 5.60
CN1CCN(c2ccc(NC(=O)Nc3ccc(-c4nc(N5CC6CCC(C5)O6)c5cnn(CCF)c5n4)cc3)cc2)CC1 :: 5.81
Cn1ncc2c(N3CC4CCC(C3)O4)nc(-c3ccc(NC(=O)Nc4cccnc4)cc3)nc21 :: 6.24
CC(C)n1ncc2c(N3CC4CCC(C3)O4)nc(-c3ccc(NC(=O)NC4CC4)cc3)nc21 :: 5.27
CCn1ncc2c(N3CC4CCC(C3)O4)nc(-c3ccc(NC(=O)Nc4ccc(N5CCN(C)CC5)nc4)cc3)nc21 :: 5.64
O=C(Nc1ccc(-c2nc(N3CC4CCC(C3)O4)c3cnn(C4CCN(Cc5cccnc5)CC4)c3n2)cc1)Nc1cccnc1 :: 5.46
CNC(=O)Nc1ccc(-c2nc(N3CC4CCC(C3)O4)c3cnn(C(C)C)c3n2)cc1 :: 5.21

Sure, the documented pIC50 for O=C(Nc1ccncc1)Nc1ccc(-c2nc(N3CC4CCC(C3)O4)c3cnn(CC(F)(F)F)c3n2)cc1 [Example 104] is 6.16

Sure, the documented pIC50 for N#CCCn1ncc2c(N3CC4CCC(C3)O4)nc(-c3ccc(NC(=O)Nc4ccc(N5CCOCC5)cc4)cc3)nc21 is 5.32
